system: SR leukemia; test: NCI tumour cell line growth inhibition, 48 h

{"COMPOUND": "COC(=O)/C=C(/C)n1nc2ccccc2n1", "TGI": "> 100 µM"}
{"COMPOUND": "c1ccc2c(c1)cc(C1NCCc3[nH]cnc31)c1ccccc12 (stereo unspecified)", "TGI": "61.1 µM"}
{"COMPOUND": "CC[C@]1(Cc2ccc(OC)c(OC)c2)C=[N+]([O-])O[C@H](OC2CCCC2(c2ccccc2)c2ccccc2)[C@@H]1OC(=O)c1ccccc1 (stereo partly specified)", "TGI": "> 100 µM"}
{"COMPOUND": "CC(=O)OCC1OC(n2cnc(C(N)=S)c2N)C(OC(C)=O)C1OC(C)=O (stereo unspecified)", "TGI": "> 100 µM"}
{"COMPOUND": "C[N+](C)(C)CC(=O)N/N=C/c1oc(-c2c(O)ccc3ccccc23)c(-c2c(O)ccc3ccccc23)c1[N+](=O)[O-]", "TGI": "58.3 µM"}
{"COMPOUND": "O=[N+]([O-])O.[Cu+2].[NH-]CC[NH-].[NH-]CC[NH-]", "TGI": "> 10 µM"}
{"COMPOUND": "Cc1cccc(C)c1NC(=O)C(C#N)C1=C(Cl)C(=O)c2ccccc2C1=O (stereo unspecified)", "TGI": "> 45.8 µM"}
{"COMPOUND": "CCC1C2Cc3ccc(O)cc3C1(CC)CCN2C (stereo unspecified)", "TGI": "> 100 µM"}
{"COMPOUND": "O=C1CCCCC/C1=C\\c1cccc(Cl)c1", "TGI": "> 100 µM"}
{"COMPOUND": "CN(C)CC/C(=N\\Nc1ccc([N+](=O)[O-])cc1)c1ccccc1", "TGI": "17.2 µM"}
{"COMPOUND": "C=Cc1ccc(C)[n+](C[Si](C)(C)O[Si](C)(C)C)c1", "TGI": "> 100 µM"}
{"COMPOUND": "COc1ccc(Br)c(N/N=C2\\CCCNC2=O)c1", "TGI": "> 100 µM"}
{"COMPOUND": "OC1(c2cccs2)c2cccc(Cl)c2C(O)(c2cccs2)c2c(Cl)cccc21 (stereo unspecified)", "TGI": "> 100 µM"}
{"COMPOUND": "Cc1ccc2c(c1)[nH]c(=S)n2/C=C1\\C(=O)Oc2ccccc2C1=O", "TGI": "> 100 µM"}
{"COMPOUND": "CC(C)OC(=O)c1ccc(NCc2cc(O)ccc2O)cc1Cl", "TGI": "8.6 µM"}
{"COMPOUND": "CN[C@@H](C)C(=O)N[C@H](C(=O)N1CCC[C@H]1C(=O)Nc1snnc1-c1ccccc1)C1CCCCC1", "TGI": "> 69.7 µM"}
{"COMPOUND": "OC(c1ccccc1)(c1ccccc1)c1ccncc1", "TGI": "> 100 µM"}
{"COMPOUND": "Cc1cc2c(cc1-c1cc3c(cc1C)C(C(C)C)=C(O)C(=O)/C3=C\\Nc1c3ccccc3nc3ccccc13)/C(=C/Nc1c3ccccc3nc3ccccc13)C(=O)C(O)=C2C(C)C", "TGI": "18.4 µM"}
{"COMPOUND": "CN(C)Nc1cc(=O)[nH]c(=O)[nH]1", "TGI": "> 100 µM"}
{"COMPOUND": "O=[N+]([O-])c1cc(C(F)(F)F)cc([N+](=O)[O-])c1CCl", "TGI": "2.72 µM"}
{"COMPOUND": "CC(=O)C(=C(c1ccccc1)c1ccccc1)c1ccccc1", "TGI": "> 100 µM"}
